inhibition at 10 µM by entry:
- test system: human GPR84 receptor (Homo sapiens, UniProt Q9NQS5)
- Construct: host or cells: HEK293, transiently transfected
- Sequence (Q9NQS5 whole entry): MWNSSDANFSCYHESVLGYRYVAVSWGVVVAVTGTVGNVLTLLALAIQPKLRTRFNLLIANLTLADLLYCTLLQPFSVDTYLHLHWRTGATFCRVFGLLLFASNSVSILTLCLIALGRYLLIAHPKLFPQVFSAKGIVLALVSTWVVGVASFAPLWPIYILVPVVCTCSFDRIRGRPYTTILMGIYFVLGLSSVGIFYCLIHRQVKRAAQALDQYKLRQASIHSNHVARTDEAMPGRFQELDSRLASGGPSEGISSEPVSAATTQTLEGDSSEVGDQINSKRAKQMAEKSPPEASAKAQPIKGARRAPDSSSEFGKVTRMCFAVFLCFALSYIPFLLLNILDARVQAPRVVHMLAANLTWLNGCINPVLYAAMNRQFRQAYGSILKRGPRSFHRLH
- assay overview: Gαi biosensor BRET assay (GPR84 antagonism vs agonist ZQ-16)
- Format: cell-based
- condition parameters: tested at 10 μM (concentration code D); HEK293 cells; 200 nmol/L agonist ZQ-16

Below are worked cases with known answers.
[[record]]
molecule = "Cc1cc(OCC(=O)N2CCCC23CC3)cc(=O)n1[C@H](C)c1ccc(C#CC2CC2)cc1 [Compound I-320]"
test_system = "human GPR84 receptor (Homo sapiens, UniProt Q9NQS5)"
result = "> 75%"

[[record]]
molecule = "Cc1cc(OCC(=O)N(C)C)cc(=O)n1[C@H](C)c1ccc(-c2nnn[nH]2)cc1 [Compound I-266]"
test_system = "human GPR84 receptor (Homo sapiens, UniProt Q9NQS5)"
result = "< 25%"

[[record]]
molecule = "Cc1cc(OCC2OCCC(C)(C)O2)cc(=O)n1[C@H](C)c1ccc(C#CC2CC2)cc1 (stereo partly shown) [Compound I-40]"
test_system = "human GPR84 receptor (Homo sapiens, UniProt Q9NQS5)"
result = "25 to 50%"


Next item in the queue.
Look up and report measured inhibition at 10 µM for this entry: Cc1cc(OCC(=O)N2CC[C@@H]2C(=O)O)cc(=O)n1[C@H](C)c1ccc(C#CC2CC2)cc1 [Compound I-300] > 75%

---

Each record here notes measured inhibition at 10 µM.
- test system: human GPR84 receptor (Homo sapiens, UniProt Q9NQS5)
- Construct: host or cells: HEK293, transiently transfected
- assay overview: Gαi biosensor BRET assay (GPR84 antagonism vs agonist ZQ-16)
- Type: cell-based
- condition parameters: tested at 10 μM (concentration code D); HEK293 cells; 200 nmol/L agonist ZQ-16

Example results:
[[record]]
molecule = "Cc1cc(OCC(=O)N2CC3C(C2)C3(C)C)cc(=O)n1[C@H](C)c1ccc(C#CC2CC2)cc1 (stereo partly shown)"
result = "> 75%"

[[record]]
molecule = "Cc1cc(OCC(=O)N2CCCC2)cc(=O)n1[C@H](C)c1ccc(C#CC2(C)CC2)cc1"
result = "> 75%"

[[record]]
molecule = "Cc1cc(OCC(=O)NC2CC(F)(F)C2)cc(=O)n1[C@H](C)c1ccc(C#CC2CC2)cc1"
result = "50 to 75%"


Please look at the following molecule next.
Return inhibition at 10 µM for the following molecule: Cc1cc(OCC(=O)NCCN2CCCC2)cc(=O)n1[C@H](C)c1ccc(C#CC2CC2)cc1 25 to 50%

---

- test system: human GPR84 receptor (Homo sapiens, UniProt Q9NQS5)
- assay overview: Gαi biosensor BRET assay (GPR84 antagonism vs agonist ZQ-16)
- condition parameters: Gαi biosensor BRET assay, HEK293 cells, 200 nmol/L agonist ZQ-16
pIC50: −log10 of the molar value.
measured endpoint: pIC50

Determine from records and report pIC50 for Cc1cc(OCC(=O)N2CCC[C@@H]2C(N)=O)cc(=O)n1[C@H](C)c1ccc(C#CC2CC2)cc1 6.00 to 6.52

Tell me its pIC50 given Cc1cc(OCC(=O)N2CCCC23CC3)cc(=O)n1[C@H](C)c1ccc(C#CC2CC2)cc1 as the entry. ≥ 6.52

Item Cc1cc(OCc2ncc(NS(C)(=O)=O)cn2)cc(=O)n1[C@H](C)c1ccc(C#CC2CC2)cc1 : provide pIC50 ≥ 6.52

Determine its reported pIC50: Cc1cc(OCC(=O)N2CC(F)C2)cc(=O)n1[C@H](C)c1ccc(C#CC2CC2)cc1 6.00 to 6.52

---

- test system: human GPR84 receptor (Homo sapiens, UniProt Q9NQS5)
- assay overview: Gαi biosensor BRET assay (GPR84 antagonism vs agonist ZQ-16)
- condition parameters: Gαi biosensor BRET assay, HEK293 cells, 200 nmol/L agonist ZQ-16
Listing of recorded IC50 by entry.

Some molecules with known IC50 results, for comparison:
[[record]]
compound_structure = "Cc1cc(OCC(=O)N2CC[C@H](C(=O)O)[C@H]2C)cc(=O)n1[C@H](C)c1ccc(C#CC2CC2)cc1"
test_system = "human GPR84 receptor (Homo sapiens, UniProt Q9NQS5)"
result = "≤ 300 nM"

[[record]]
compound_structure = "Cc1cc(OCC(=O)NC2CC2)cc(=O)n1[C@H](C)c1ccc(C#CC2CC2)cc1"
test_system = "human GPR84 receptor (Homo sapiens, UniProt Q9NQS5)"
result = "300 to 1000 nM"


GET IC50 where system = human GPR84 receptor (Homo sapiens, UniProt Q9NQS5) and item = Cc1cc(OCC(=O)N(C)CC(F)(F)F)cc(=O)n1[C@H](C)c1ccc(C#CC2CC2)cc1 ≤ 300 nM

Report IC50 on human GPR84 receptor (Homo sapiens, UniProt Q9NQS5) for this entry: Cc1cc(OCc2nnn(C)n2)cc(=O)n1[C@H](C)c1ccc(C#CC2CC2)cc1 300 to 1000 nM

---

# key: entry, value: IC50
- test system: human GPR84 receptor (Homo sapiens, UniProt Q9NQS5)
- assay overview: Gαi biosensor BRET assay (GPR84 antagonism vs agonist ZQ-16)
- condition parameters: Gαi biosensor BRET assay, HEK293 cells, 200 nmol/L agonist ZQ-16

Solved cases (3 shown):
[[record]]
compound = "Cc1cc(OCc2cnc(NS(C)(=O)=O)nc2)cc(=O)n1[C@H](C)c1ccc(C#CC2CC2)cc1 [Compound I-81]"
result = "≤ 300 nM"

[[record]]
compound = "Cc1cc(OCc2ncncc2Cl)cc(=O)n1[C@H](C)c1ccc(C#CC2CC2)cc1 [Compound I-15]"
result = "≤ 300 nM"

[[record]]
compound = "[2H]C([2H])([2H])N(C(=O)COc1cc(C)n([C@H](C)c2ccc(C#CC3CC3)cc2)c(=O)c1)C([2H])([2H])[2H] [Compound I-6]"
result = "≤ 300 nM"


# ---- query compound ----
Please supply the value of reported IC50 for the item Cc1cc(OCC(=O)N2CCCC2)cc(=O)n1[C@H](C)c1ccc(C#CC2(C)CC2)cc1 [Compound I-88] 300 to 1000 nM

---

# Lookup of reported inhibition at 10 µM keyed by entry
- test system: human GPR84 receptor (Homo sapiens)
- Construct: host or cells: HEK293, transiently transfected
- assay overview: Gαi biosensor BRET assay (GPR84 antagonism vs agonist ZQ-16)
- Type: cell-based
- condition parameters: tested at 10 μM (concentration code D); HEK293 cells; 200 nmol/L agonist ZQ-16

Examples with their reported inhibition at 10 µM follow.
[[record]]
compound = "Cc1cc(OCc2ncccn2)cc(=O)n1[C@H](C)c1ccc(/C=C/C2CC2)cc1"
result = "< 25%"

[[record]]
compound = "Cc1cc(OCC(=O)N(C)C)cc(=O)n1C(C)c1ccc(C#CC2CC2)cc1Cl (stereo not shown)"
result = "> 75%"

[[record]]
compound = "Cc1cc(OCS(=O)(=O)N(C)C)cc(=O)n1[C@H](C)c1ccc(C#CC2CC2)c(F)c1"
result = "50 to 75%"

[[record]]
compound = "Cc1cc(OCC(=O)N(C)C)cc(=O)n1[C@H](C)c1ccc(C#CC2CC2)c(O)c1"
result = "> 75%"

[[record]]
compound = "COc1cc(C(C)n2c(C)cc(OCC(=O)N(C)C)cc2=O)ccn1 (stereo not shown)"
result = "< 25%"

[[record]]
compound = "Cc1cc(OCC(=O)NCC(C)C)cc(=O)n1[C@H](C)c1ccc(C#CC2CC2)cc1"
result = "> 75%"

[[record]]
compound = "CCCC#Cc1ccc([C@@H](C)n2c(C)cc(OCC(=O)N(C)C)cc2=O)cc1"
result = "> 75%"

[[record]]
compound = "Cc1cc(OCS(=O)(=O)N(C)C)cc(=O)n1[C@H](C)c1ccc(C#CC2CC2)cc1"
result = "50 to 75%"


Return inhibition at 10 µM (reported value) for this compound: Cc1cc(OCc2cnc(NS(C)(=O)=O)nc2)cc(=O)n1[C@H](C)c1ccc(C#CC2CC2)cc1 > 75%

Please supply the value of reported inhibition at 10 µM for the item Cc1cc(OCS(N)(=O)=O)cc(=O)n1[C@H](C)c1ccc(C#CC2CC2)c(F)c1 > 75%

Entry Cc1cc(OCC(=O)NC2CCOCC2)cc(=O)n1[C@H](C)c1ccc(C#CC2CC2)cc1 needs its inhibition at 10 µM filled in; supply it. 50 to 75%

---

- test system: human GPR84 receptor (Homo sapiens)
- Construct: host or cells: HEK293, transiently transfected
- assay overview: Gαi biosensor BRET assay (GPR84 antagonism vs agonist ZQ-16)
- Assay type: cell-based
- condition parameters: tested at 10 μM (concentration code D); HEK293 cells; 200 nmol/L agonist ZQ-16
Here the recorded inhibition at 10 µM is given for each entry.

Consider the following illustrative entries.
[[record]]
compound = "Cc1nc(OCC(=O)N(C)C)cc(=O)n1[C@@H](C)c1ccc(C#CC2CC2)cc1 [Compound I-218]"
measured_endpoint = "inhibition at 10 µM"
result = "< 25%"

[[record]]
compound = "Cc1cc(OCc2ncccn2)cc(=O)n1[C@H](C)c1ccc(C#CC2(C)CC2)cc1 [Compound I-77]"
measured_endpoint = "inhibition at 10 µM"
result = "50 to 75%"

[[record]]
compound = "Cc1cc(OCc2ncccn2)cc(=O)n1[C@H](C)c1ccc(-c2cnc(C3CC3)cn2)c(F)c1 [Compound I-10]"
measured_endpoint = "inhibition at 10 µM"
result = "< 25%"

[[record]]
compound = "Cc1cc(OCC(=O)O)cc(=O)n1[C@H](C)c1ccc(C#CC2CC2)cc1 [Compound I-21]"
measured_endpoint = "inhibition at 10 µM"
result = "50 to 75%"

[[record]]
compound = "Cc1cc(OCC(=O)N(C)CC(F)(F)F)cc(=O)n1[C@@H](C)c1ccc(C#CC2CC2)cc1 [Compound I-237]"
measured_endpoint = "inhibition at 10 µM"
result = "< 25%"

[[record]]
compound = "Cc1cc(OCC(=O)N2CCC[C@@H]2C(N)=O)cc(=O)n1[C@H](C)c1ccc(C#CC2CC2)cc1 [Compound I-318]"
measured_endpoint = "inhibition at 10 µM"
result = "> 75%"


Give the measured inhibition at 10 µM for Cc1cc(OCC2(N(C)C)CC2)cc(=O)n1[C@H](C)c1ccc(C#CC2CC2)c(F)c1 [Compound I-31] 25 to 50%

Please give measured inhibition at 10 µM of the following entry: Cc1cc(OCC(=O)N(C)C2CN(C)C2)cc(=O)n1[C@H](C)c1ccc(C#CC2CC2)cc1 [Compound I-59] > 75%

Read the entry CC(=O)C(C)(C)Oc1cc(C)n([C@H](C)c2ccc(C#CC3CC3)cc2)c(=O)c1 [Compound I-271] and write its reported inhibition at 10 µM. 25 to 50%

State, in one line, measured inhibition at 10 µM of Cc1cc(OCC(=O)N(C)C(C)C)cc(=O)n1[C@H](C)c1ccc(C#CC2CC2)cc1 [Compound I-55] > 75%

Output inhibition at 10 µM of Cc1cc(OCC(=O)C2CCCC2)cc(=O)n1[C@H](C)c1ccc(C#CC2CC2)cc1 [Compound I-273] > 75%

Dear colleague, please send me the reported inhibition at 10 µM for Cc1cc(OCC(=O)N2CC(C)OC(C)C2)cc(=O)n1[C@H](C)c1ccc(C#CC2CC2)cc1 (some centres unmarked) [Compound I-348] when you can. > 75%

Recall and state the measured inhibition at 10 µM for CCCCc1ccc(C(C)n2c(C)cc(OCc3ncccn3)cc2=O)cc1 (centres unmarked) [Compound I-5] . < 25%

Answer with the recorded inhibition at 10 µM for the compound listed here: Cc1cc(OCC(=O)N2CCC(F)(F)CC2)cc(=O)n1[C@H](C)c1ccc(C#CC2CC2)cc1 [Compound I-8] > 75%

Recall and state the measured inhibition at 10 µM for Cc1cc(OCC(=O)N2CC(C)(O)C2)cc(=O)n1[C@H](C)c1ccc(C#CC2CC2)cc1 [Compound I-345] . > 75%

Specify inhibition at 10 µM for Cc1cc(OCC2(N(C)C)CC2)cc(=O)n1[C@H](C)c1ccc(C#CC2CC2)cc1 [Compound I-30] and stop. 50 to 75%

Values from patent US20260055117A1
